Answer each item with its documented IC50.
- System: A549
- assay: Antiproliferative activity against human A549 cells after 72 hrs by CCK-8 assay
- Format: functional, cell-based
- assayConditions: A549, 72 h
One number for each entry, in µM.

Below, 8 molecules whose answers are already recorded.
>  <molecule>
C[C@@H]1CC[C@@H]2[C@]34OO[C@](C)(CC[C@@H]13)O[C@H]4O[C@]2(C)C(=O)OCCCCCCCCCCOC(=O)[C@@]1(C)O[C@@H]2O[C@@]3(C)CC[C@H]4[C@H](C)CC[C@@H]1[C@@]24OO3

>  <measurementTarget>
A549

>  <valueReported>
29

$$$$
>  <molecule>
CCOP(=O)(OC[C@@]1(C)O[C@@H]2O[C@@]3(C)CC[C@H]4[C@H](C)CC[C@@H]1[C@@]24OO3)OC[C@@]1(C)O[C@@H]2O[C@@]3(C)CC[C@H]4[C@H](C)CC[C@@H]1[C@@]24OO3

>  <measurementTarget>
A549

>  <valueReported>
15.4

$$$$
>  <molecule>
C[C@H]1[C@@H](O)O[C@@H]2O[C@@]3(C)CC[C@H]4[C@H](C)CC[C@@H]1[C@@]24OO3 [ARTENIMOL]

>  <measurementTarget>
A549

>  <valueReported>
29.9

$$$$
>  <molecule>
C[C@@H]1CC[C@@H]2[C@]34OO[C@](C)(CC[C@@H]13)O[C@H]4O[C@]2(C)C(=O)OCCCCCCCCCOC(=O)[C@@]1(C)O[C@@H]2O[C@@]3(C)CC[C@H]4[C@H](C)CC[C@@H]1[C@@]24OO3

>  <measurementTarget>
A549

>  <valueReported>
12.2

$$$$
>  <molecule>
C[C@@H]1CC[C@@H]2[C@]34OO[C@](C)(CC[C@@H]13)O[C@H]4O[C@]2(C)C(=O)Nc1ccccc1NC(=O)[C@@]1(C)O[C@@H]2O[C@@]3(C)CC[C@H]4[C@H](C)CC[C@@H]1[C@@]24OO3

>  <measurementTarget>
A549

>  <valueReported>
31.6

$$$$
>  <molecule>
C[C@@H]1CC[C@@H]2[C@]34OO[C@](C)(CC[C@@H]13)O[C@H]4O[C@]2(C)/C=C\COP(=O)(OC/C=C/[C@@]1(C)O[C@@H]2O[C@@]3(C)CC[C@H]4[C@H](C)CC[C@@H]1[C@@]24OO3)Oc1ccccc1

>  <measurementTarget>
A549

>  <valueReported>
10.7

$$$$
>  <molecule>
COc1cccc2c1C(=O)c1c(O)c3c(c(O)c1C2=O)C[C@@](O)(C(=O)CO)C[C@@H]3O[C@H]1C[C@H](N)[C@H](O)[C@H](C)O1 [DOXORUBICIN]

>  <measurementTarget>
A549

>  <valueReported>
0.43

$$$$
>  <molecule>
C[C@@H]1CC[C@@H]2[C@]34OO[C@](C)(CC[C@@H]13)O[C@H]4O[C@]2(C)C(=O)NCCCCCCCCNC(=O)[C@@]1(C)O[C@@H]2O[C@@]3(C)CC[C@H]4[C@H](C)CC[C@@H]1[C@@]24OO3

>  <measurementTarget>
A549

>  <valueReported>
18.9

$$$$

# return IC50 for each item in the list
1. CCOP(=O)(OC/C=C\[C@@]1(C)O[C@@H]2O[C@@]3(C)CC[C@H]4[C@H](C)CC[C@@H]1[C@@]24OO3)OC/C=C/[C@@]1(C)O[C@@H]2O[C@@]3(C)CC[C@H]4[C@H](C)CC[C@@H]1[C@@]24OO3
2. C[C@@H]1CC[C@@H]2[C@]34OO[C@](C)(CC[C@@H]13)O[C@H]4O[C@]2(C)C(=O)OCCCCCCCCOC(=O)[C@@]1(C)O[C@@H]2O[C@@]3(C)CC[C@H]4[C@H](C)CC[C@@H]1[C@@]24OO3

11.4
4.69
